Assay: Particle size distribution by laser-diffraction method (Mastersizer 2000, dry mode)
Assay type: physicochemical
Conditions: dispersion air pressure 2 Bar, volume conversion
This section presents molecules with their documented D90 values.
Give your result in μm as a bare value.

CC(=O)Nc1ccc(O)cc1 [Lot A, acetaminophen] ... 320
CC(=O)Nc1ccc(O)cc1 [Lot B, acetaminophen] ... 551
CC(=O)Nc1ccc(O)cc1 [Lot C, acetaminophen] ... 419
CC(=O)Nc1ccc(O)cc1 [Lot D, acetaminophen] ... 464

As a next step, examine the molecule that follows.
// D90 value for CC(=O)Nc1ccc(O)cc1 [Lot P, acetaminophen] : 166

###

Assay: Particle size distribution by laser-diffraction method (Mastersizer 2000, dry mode)
Type: physicochemical
Conditions: dispersion air pressure 2 Bar, volume conversion
observable: D10 (μm)
Give your result in μm as a bare value.

Example cases with answers are listed next.
CC(=O)Nc1ccc(O)cc1 [Lot P, acetaminophen] ... 3.7
CC(=O)Nc1ccc(O)cc1 [Lot A, acetaminophen] ... 20
CC(=O)Nc1ccc(O)cc1 [Lot B, acetaminophen] ... 30
CC(=O)Nc1ccc(O)cc1 [Lot D, acetaminophen] ... 20

As a next step, examine the molecule that follows.
// D10 value for CC(=O)Nc1ccc(O)cc1 [Lot C, acetaminophen] : 26
